Where these numbers come from: paper doi:10.1101/2020.12.12.421834

molecular target: T1, PD1 N-terminal loop-GST fusion protein (Homo sapiens); test: ELISA
T1 chain: LDSPDRPWNP
Endpoint name: binding result

>  <Binder>
M2-5 anti-PD1 antibody (human IgG4/kappa, C-terminal 6xHis) (antibody, V domains shown) VH: QVQLVESGGDVVQPGGSLRLSCAASGVVFSDYGLYWVRQAPGKGLEWVALIWYDGSKKFYADSVKGRFSISRDNSKNMLYLQMNNLRADDSAIYYCSRGIRQGPWFAYWGQGTRVTVSP VL: EIVLTQSPATLSLSPGERATLSCRASQSISSDLTWFQQKPGQAPRLIIYDASNRATGIPARFSGSGSGTDFTLTISSLEPEDFVVYYCLQRSDWPLTFGGGTKVEIK

>  <Result>
binds

$$$$
>  <Binder>
M1-6 anti-PD1 antibody (human IgG4/kappa, C-terminal 6xHis) (antibody, V domains shown) VH: QVQLVESGGDVVQSGGSLRLSCAVSGVVFSDYGFEWVRQAPGKGLEWVAVIWYDGSRKHYADSVQGRFTISRDNFRNMLYLQMTGLRVEDTAKYYCTRSHSHEDYWGQGTLVTVSS VL: EIVLTQSPATLSLSPGERATLSCGASQNIDNSLAWFQQKPGQAPRLIIYDASKRATGIPARFSGSGSGTDFTLTISTLEPEDFAVYYCQQRDHWPLNFGGGTKVEVK

>  <Result>
binds

$$$$
>  <Binder>
M2-4 anti-PD1 antibody (human IgG4/kappa, C-terminal 6xHis) (antibody, V domains shown) VH: QVQLVESGGDVVQPGGSLRLSCAASGVAFRNYGMHWVRQAPGKGLEWVAIIWYDGSNKYYADSVKGRFTISRDNSKNMLYLQMNSLRAEDTAMYYCARLSIGTTHYFDTDDYWGQGTSVTVSS VL: EIVLTQSPATLSLSPGERATLSCRASQSVSSYLAWYQQKVGQAPRLIIFDASNRATGIPARFSGSGSGTDFTLTITSLDPEDFAVYYCQQRSAWPLTFGGGTKVEIR

>  <Result>
binds

$$$$
